Reported values of Inhibition of binding (%) for individual entries
System Under Test: T1, human TSH receptor (full length), coated on tubes (human, UniProt P16473 22-764)
T1 construct: TSHR coated tubes as described in WO2004/050708A2; Exact preparation on the tubes is not detailed here; also called thyroid stimulating hormone receptor
Test Method Notes: competition with 125I-K1-18 IgG on TSHR coated tubes; 0.003 µg/mL, diluted in HBD serum pool
Express your answer in %, writing the number without its unit.

Q: Report Inhibition of binding (%), nothing else, for this binder: K1-18 IgG (antibody, V domains shown) VH: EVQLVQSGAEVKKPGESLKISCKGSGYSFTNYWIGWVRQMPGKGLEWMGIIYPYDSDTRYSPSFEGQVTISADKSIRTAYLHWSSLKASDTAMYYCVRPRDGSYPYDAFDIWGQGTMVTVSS VL: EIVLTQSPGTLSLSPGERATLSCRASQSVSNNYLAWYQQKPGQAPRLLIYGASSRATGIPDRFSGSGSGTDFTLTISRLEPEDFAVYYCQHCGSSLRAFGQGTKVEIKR
A: -0.3

Q: Report Inhibition of binding (%), nothing else, for this binder: K1-70 IgG (antibody, V domains shown) VH: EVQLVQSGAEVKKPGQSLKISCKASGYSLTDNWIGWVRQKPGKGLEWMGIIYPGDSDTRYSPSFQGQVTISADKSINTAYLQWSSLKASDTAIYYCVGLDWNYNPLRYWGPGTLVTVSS VL: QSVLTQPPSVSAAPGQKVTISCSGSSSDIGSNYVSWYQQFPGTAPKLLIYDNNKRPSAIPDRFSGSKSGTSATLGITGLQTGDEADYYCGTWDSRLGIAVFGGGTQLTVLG
A: 2.1

Q: Report Inhibition of binding (%), nothing else, for this binder: K1-70 Fab (Fab, V domains shown) VH: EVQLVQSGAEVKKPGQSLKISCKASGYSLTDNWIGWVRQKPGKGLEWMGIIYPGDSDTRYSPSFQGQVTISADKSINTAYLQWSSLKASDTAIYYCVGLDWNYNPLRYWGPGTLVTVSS VL: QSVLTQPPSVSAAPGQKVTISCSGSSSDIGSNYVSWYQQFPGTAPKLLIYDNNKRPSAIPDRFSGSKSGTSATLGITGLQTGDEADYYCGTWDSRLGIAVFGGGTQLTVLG
A: 3.7

Q: Report Inhibition of binding (%), nothing else, for this binder: K1-18 Fab (Fab, V domains shown) VH: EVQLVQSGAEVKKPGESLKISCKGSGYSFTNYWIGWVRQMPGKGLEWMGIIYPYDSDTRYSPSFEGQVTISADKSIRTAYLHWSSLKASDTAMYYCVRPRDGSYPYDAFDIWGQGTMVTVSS VL: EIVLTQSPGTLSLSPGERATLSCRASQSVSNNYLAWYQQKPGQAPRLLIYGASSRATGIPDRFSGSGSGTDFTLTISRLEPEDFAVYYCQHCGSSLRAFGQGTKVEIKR
A: 1
